- measurement_target: KAT-5 (Homo sapiens (Human))
- Sequence (Q92993 other isoform, or with tags, fused parts or gaps): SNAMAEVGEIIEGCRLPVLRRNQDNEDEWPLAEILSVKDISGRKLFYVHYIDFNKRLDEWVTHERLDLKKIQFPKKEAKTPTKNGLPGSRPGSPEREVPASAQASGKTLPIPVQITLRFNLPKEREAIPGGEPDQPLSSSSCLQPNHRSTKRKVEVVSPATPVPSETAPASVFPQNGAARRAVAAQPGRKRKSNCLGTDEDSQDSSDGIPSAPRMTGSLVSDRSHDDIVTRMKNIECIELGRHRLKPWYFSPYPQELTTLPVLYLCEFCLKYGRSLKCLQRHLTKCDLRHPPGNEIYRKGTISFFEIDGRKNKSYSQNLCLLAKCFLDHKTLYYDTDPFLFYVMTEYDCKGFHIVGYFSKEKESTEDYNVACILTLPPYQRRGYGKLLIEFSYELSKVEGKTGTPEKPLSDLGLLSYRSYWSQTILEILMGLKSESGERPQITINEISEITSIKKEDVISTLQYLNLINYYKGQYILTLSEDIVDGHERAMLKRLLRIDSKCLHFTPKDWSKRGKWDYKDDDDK
- test_summary: KAT-5 biochemical inhibition assay (SAMDI mass spectrometry)
pIC50: −log10 of the molar value.
assay_readout: pIC50

Here is how some compounds turned out for pIC50.
[[record]]
compound = "Cn1cnc(-c2cc(Cl)c(F)c(C(=O)NNS(=O)(=O)CC3CN(C(=O)N4CCC4)C3)c2)c1 [Compound I-169]"
assay_readout = "pIC50"
measurement = "4.30 to 5.00"

[[record]]
compound = "O=C(NNS(=O)(=O)CC1CCOCC1)c1cc(-c2cscn2)cc(Cl)c1F [Compound I-48]"
assay_readout = "pIC50"
measurement = "> 5.00"


Please examine the following record next.
Cn1cnc(-c2cc(Cl)c(F)c(C(=O)NNS(=O)(=O)c3cncs3)c2)c1 [Compound I-257] has a reported pIC50 of 4.30 to 5.00
